Target: full-length human PKCι (Homo sapiens)
Construct: Recombinant, full-length human PKCι expressed in Sf21 insect cells is also commercially available; purchased; host or cells: Sf21 insect cells
Sequence (P41743 1-596): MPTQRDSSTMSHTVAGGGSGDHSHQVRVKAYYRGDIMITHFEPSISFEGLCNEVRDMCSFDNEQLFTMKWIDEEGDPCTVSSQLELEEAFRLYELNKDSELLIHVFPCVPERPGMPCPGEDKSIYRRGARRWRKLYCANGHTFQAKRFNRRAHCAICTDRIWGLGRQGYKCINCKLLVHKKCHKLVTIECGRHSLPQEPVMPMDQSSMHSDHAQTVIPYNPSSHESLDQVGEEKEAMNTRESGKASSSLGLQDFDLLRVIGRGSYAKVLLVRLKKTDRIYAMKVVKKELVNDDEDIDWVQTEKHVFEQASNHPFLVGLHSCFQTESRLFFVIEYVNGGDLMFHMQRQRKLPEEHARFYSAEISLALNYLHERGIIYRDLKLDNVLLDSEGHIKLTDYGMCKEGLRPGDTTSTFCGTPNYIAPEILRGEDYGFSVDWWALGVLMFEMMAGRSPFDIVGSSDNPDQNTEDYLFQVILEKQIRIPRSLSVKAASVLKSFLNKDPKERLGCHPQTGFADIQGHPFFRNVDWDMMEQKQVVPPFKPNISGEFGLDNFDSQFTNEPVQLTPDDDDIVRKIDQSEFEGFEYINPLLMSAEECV
Experiment: PKCι IC50 IMAP fluorescence polarisation assay, full-length enzyme
Format: biochemical
Details: full length PKCi at 15 μM ATP; read-out: IC50 in IMAP assay against full length PKCi
pIC50: −log10 of the molar value.
quantity name: pIC50

Here are 5 compounds together with their reported answers.
[
  {
    "compound": "N#Cc1ccc(Nc2cc(-c3nc(N[C@@H]4CCNC4)c4sccc4n3)ccn2)nc1 [compound 604]",
    "tested target": "full-length human PKCι (Homo sapiens)",
    "pIC50": "6.00 to 7.00"
  },
  {
    "compound": "N[C@H](CNc1nc(-c2ccncc2F)nc2c(C#CC3(O)CCC3)csc12)Cc1ccccc1 [compound 507]",
    "tested target": "full-length human PKCι (Homo sapiens)",
    "pIC50": "6.00 to 7.00"
  },
  {
    "compound": "N[C@H](CNc1nc(-c2cc[n+]([O-])cc2)nc2c(-c3ccn[nH]3)csc12)Cc1ccccc1 [compound 565]",
    "tested target": "full-length human PKCι (Homo sapiens)",
    "pIC50": "5.00 to 6.00"
  },
  {
    "compound": "COc1ccc(OC)c(-c2c(C)sc3c(NC[C@@H](N)Cc4ccccc4)nc(-c4ccncc4)nc23)c1 [compound 466]",
    "tested target": "full-length human PKCι (Homo sapiens)",
    "pIC50": "4.40 to 5.00"
  },
  {
    "compound": "N[C@H](CNc1nc(-c2ccncc2)nc2c(Cl)csc12)Cc1ccccc1 [compound 306]",
    "tested target": "full-length human PKCι (Homo sapiens)",
    "pIC50": "> 7.00"
  }
]

Qu. Give recorded pIC50 with full-length human PKCι (Homo sapiens) for the following compound: Cc1sc2c(NC[C@@H](N)Cc3ccccc3)nc(-c3ccncc3)nc2c1-c1cc(F)ccc1OC(C)C [compound 446]
Ans. 4.40 to 5.00

Qu. Notebook: pull reported pIC50 for full-length human PKCι (Homo sapiens), entry N[C@@H](CNc1nc(-c2ccncc2)nc2c(-c3ccn[nH]3)csc12)Cc1ccccc1 [compound 414]
Ans. 6.00 to 7.00

Qu. Missing value: pIC50, full-length human PKCι (Homo sapiens), entry CC(C)(C)/C=C/c1csc2c(NC[C@@H](N)Cc3ccccc3)nc(-c3ccncc3)nc12 [compound 406] . Fill in?
Ans. 5.00 to 6.00

Qu. For the record CN1CCN(c2ccc(Nc3cc(-c4nc(N[C@@H]5CCNC5)c5sccc5n4)ccn3)nc2)CC1 [compound 603] , what value of pIC50 is listed for full-length human PKCι (Homo sapiens)?
Ans. 6.00 to 7.00

Qu. Hello, I am looking for reported pIC50 with full-length human PKCι (Homo sapiens) for N[C@H](CNc1nc(-c2ccncc2)nc2c(-c3ccn[nH]3)csc12)Cc1ccccc1 [compound 390] . Could you help?
Ans. > 7.00

Qu. What reported pIC50 corresponds to c1ccc(Nc2cc(-c3nc(N[C@@H]4CCNC4)c4sccc4n3)ccn2)nc1 [compound 600] on full-length human PKCι (Homo sapiens)?
Ans. 5.00 to 6.00

Qu. What value of pIC50 on full-length human PKCι (Homo sapiens) does N[C@H](CNc1nc(-c2ccncc2F)nc2c(Br)csc12)Cc1ccccc1 [compound 304] have?
Ans. > 7.00

----------
Target: full-length human PKCι (Homo sapiens, UniProt P41743)
Construct: Recombinant, full-length human PKCι expressed in Sf21 insect cells is also commercially available; purchased; host or cells: Sf21 insect cells
Assay: PKCι IC50 IMAP fluorescence polarisation assay, full-length enzyme
Type: biochemical
Conditions: full length PKCi at 15 μM ATP; read-out: IC50 in IMAP assay against full length PKCi
quantity name: IC50

[
  {
    "sample smiles": "Brc1csc2c(N[C@@H]3CCCNC3)nc(-c3ccncc3)nc12",
    "tested target": "full-length human PKCι (Homo sapiens, UniProt P41743)",
    "IC50": "100 to 1000 nM"
  },
  {
    "sample smiles": "CC(C)(O)CC#Cc1csc2c(NC[C@@H](N)Cc3ccccc3)nc(-c3ccncc3)nc12",
    "tested target": "full-length human PKCι (Homo sapiens, UniProt P41743)",
    "IC50": "100 to 1000 nM"
  },
  {
    "sample smiles": "CC(C)(O)C#Cc1csc2c(N[C@@H]3CCNC3)nc(-c3ccncc3)nc12",
    "tested target": "full-length human PKCι (Homo sapiens, UniProt P41743)",
    "IC50": "100 to 1000 nM"
  },
  {
    "sample smiles": "N[C@H](CNc1nc(-c2ccncc2)nc2c(-n3ccnn3)csc12)Cc1ccccc1",
    "tested target": "full-length human PKCι (Homo sapiens, UniProt P41743)",
    "IC50": "100 to 1000 nM"
  },
  {
    "sample smiles": "N[C@H](CNc1nc(-c2ccncc2)nc2c(Nc3ccccn3)csc12)Cc1ccccc1",
    "tested target": "full-length human PKCι (Homo sapiens, UniProt P41743)",
    "IC50": "< 100 nM"
  },
  {
    "sample smiles": "C[C@H](O)C#Cc1csc2c(N[C@@H]3CCNC3)nc(-c3ccncc3)nc12",
    "tested target": "full-length human PKCι (Homo sapiens, UniProt P41743)",
    "IC50": "< 100 nM"
  },
  {
    "sample smiles": "N[C@H](CNc1nc(-c2ccncc2)nc2c(C3CC3)csc12)Cc1ccccc1",
    "tested target": "full-length human PKCι (Homo sapiens, UniProt P41743)",
    "IC50": "< 100 nM"
  }
]

# evaluate next
Qu. I'd like to know its IC50. The compound in question is CCc1cc(-c2csc3c(NC[C@@H](N)Cc4ccccc4)nc(-c4ccncc4)nc23)[nH]n1
Ans. < 100 nM

----------
Target: full-length human PKCι (Homo sapiens, UniProt P41743)
Construct: Recombinant, full-length human PKCι expressed in Sf21 insect cells is also commercially available; purchased; host or cells: Sf21 insect cells
Sequence (P41743 1-596): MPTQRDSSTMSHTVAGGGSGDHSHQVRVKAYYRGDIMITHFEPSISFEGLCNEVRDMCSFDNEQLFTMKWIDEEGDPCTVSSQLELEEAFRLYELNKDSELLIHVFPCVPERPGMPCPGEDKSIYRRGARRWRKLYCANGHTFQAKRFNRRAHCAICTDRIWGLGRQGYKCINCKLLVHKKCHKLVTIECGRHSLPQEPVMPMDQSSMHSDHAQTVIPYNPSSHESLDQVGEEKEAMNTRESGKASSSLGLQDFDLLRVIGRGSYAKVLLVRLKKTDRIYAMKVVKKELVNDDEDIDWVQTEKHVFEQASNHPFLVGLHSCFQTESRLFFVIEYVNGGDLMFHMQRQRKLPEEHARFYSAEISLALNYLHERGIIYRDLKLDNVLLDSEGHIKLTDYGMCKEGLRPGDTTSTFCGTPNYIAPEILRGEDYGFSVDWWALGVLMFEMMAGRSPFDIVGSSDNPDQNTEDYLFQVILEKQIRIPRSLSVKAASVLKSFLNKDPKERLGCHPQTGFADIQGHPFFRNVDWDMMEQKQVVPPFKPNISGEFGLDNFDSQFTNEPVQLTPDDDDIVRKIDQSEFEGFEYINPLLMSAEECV
Assay: PKCι IC50 IMAP fluorescence polarisation assay, full-length enzyme
Type: biochemical
Conditions: full length PKCi at 15 μM ATP; read-out: IC50 in IMAP assay against full length PKCi
pIC50: −log10 of the molar value.
quantity name: pIC50

Some compounds with recorded pIC50:
[
  {
    "sample smiles": "C[C@@H](O)C#Cc1csc2c(NC[C@@H](N)Cc3ccccc3)nc(-c3ccncc3)nc12",
    "quantity name": "pIC50",
    "result": "> 7.00"
  },
  {
    "sample smiles": "c1cc(-c2nc(N[C@@H]3CCNC3)c3sccc3n2)cc(Nc2ccc(-c3ccsc3)cc2)n1",
    "quantity name": "pIC50",
    "result": "6.00 to 7.00"
  },
  {
    "sample smiles": "N[C@H](CNc1nc(-c2ccncc2)nc2c(-c3cc[nH]c3)csc12)Cc1ccccc1",
    "quantity name": "pIC50",
    "result": "6.00 to 7.00"
  },
  {
    "sample smiles": "N[C@H](CNc1nc(-c2ccncc2)nc2c(C#CC3(O)CC3)csc12)Cc1ccccc1",
    "quantity name": "pIC50",
    "result": "> 7.00"
  },
  {
    "sample smiles": "N#Cc1cccc(Nc2cc(-c3nc(N[C@@H]4CCNC4)c4sccc4n3)ccn2)c1",
    "quantity name": "pIC50",
    "result": "5.00 to 6.00"
  }
]

Qu. Requested field: pIC50. Item: Fc1ccccc1Nc1csc2c(N[C@@H]3CCNC3)nc(-c3ccncc3F)nc12
Ans. 6.00 to 7.00

Qu. Given the entry CNC(=O)c1csc2c(NC[C@@H](N)Cc3ccccc3)nc(-c3ccncc3)nc12 , report its measured pIC50.
Ans. > 7.00

Qu. # lookup: pIC50 of C[C@H](O)CC#Cc1csc2c(NC[C@@H](N)Cc3ccccc3)nc(-c3ccncc3)nc12
Ans. 6.00 to 7.00
